# MEASUREMENT_TARGET: T1, Peptide 8: Biotin-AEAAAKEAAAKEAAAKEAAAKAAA-Tyr-acid (N-terminal biotin; C-terminal acid)
# T1 construct: control peptide without PC
# T1 peptide: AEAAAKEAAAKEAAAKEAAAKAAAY
# METHOD_SUMMARY: scFv ELISA
ASSAY_READOUT: OD450 (OD450)
Dear colleague, please return just the value in OD450, with no unit written.

BINDER	NUMERIC_READOUT
PcOxP_DB01_H08 (scFv, V domains shown, scFv in periplasmic extract) VH: EVQLLESGGGLVQPGGSLRLSCAASGFTHSDFYMEWVRQAPGKGLEWVAASRNKANDYTTEYADSVKGRFTISRDNSKNTLYLQMNSLRAEDTAVYYCARDYYGSSYWYFDVWGQGTLVTVSS VL: DIQMTQSPSSLSASVGDRVTITCRASESISSSKHKHYLAWYQQKPGKAPKLLIYGASNRYIGVPSRFSGSGSGTDFTLTISSLQPEDFATYYCAQFYVYPLTFGGGTKVEIK	0.06

Give me measured OD450, please, for this binder: PcOxP_DB01_F04 (scFv, V domains shown, scFv in periplasmic extract) VH: EVQLLESGGGLVQPGGSLRLSCAASGFTFSSYYMEWVRQAPGKGLEWVAASRNKYNDYTTEYADSVKGRFTISRDNSKNTLYLQMNSLRAEDTAVYYCARDYYGSSYWYFDVWGQGTLVTVSS VL: DIQMTQSPSSLSASVGDRVTITCTASESLYSSKHKVHYLAWYQQKPGKAPKLLIYGAVNRYIGVPSRFSGSGSGTDFTLTISSLQPEDFATYYCAQFYRYPLTFGGGTKVEIK
0.05
